Hello, the source for this data is paper PMC9091336, in case you need it.

# study target: PyasOBP2
# assay procedure: Fluorescence competitive binding assay with 1-NPN as probe
# study conditions: PyasOBP2 2 μM, 1-NPN 2 μM, ligand 0 to 20 μM, three replicates
Can you tell me IC50 for the items I'm about to list?
Supply the numeric figure in µM, leaving out any unit text.

# input Could you tell me which IC50 is on file for C=CC(C)(O)CCC=C(C)C (stereo not shown) ?
# output 11.6

# input Entry CCCCCC=O has what IC50?
# output 10.9

# input Look up IC50 for this molecule: CC(C)=Cc1ccccc1
# output 5.42

# input Which IC50 reading was recorded for the molecule C=CC(=C)CCC=C(C)C ?
# output 11.8

# input Query (molecule): CCCCCCCCC=O ; field requested: IC50
# output 15.6

# input Fill blank: measured IC50 of the molecule C=C1C2CCC(C2)C1(C)C (stereo not shown) is ____.
# output 8.33

# input Please give the measured IC50 for this molecule: CCCCCCCC=O
# output 7.81
